Item-by-item account of mass density
conditions: 293.15 K; 101 kPa; Liquid; Vibrating tube method
I only need the number, in kg/m3, no unit after it.

Solved cases below.
[
  {
    "compound": "CCC(C)O (stereo unspecified)",
    "units-text": "kg/m3",
    "mass density": 806.57
  },
  {
    "compound": "CCCCCC(C)O (stereo unspecified)",
    "units-text": "kg/m3",
    "mass density": 817.18
  }
]

Prompt: # input compound: CC(C)O ; wanted: its mass density
Response: 785.19

Prompt: Continue with CC#N
Response: 782.04

Prompt: Continue with CCCC(C)O (stereo unspecified)
Response: 809.29

Prompt: Continue with CCCCC(C)O (stereo unspecified)
Response: 814.08
